# measurement_description: Compound was evaluated for the inhibition of L-pipecolate oxidase(LPO) isolated from frozen Rhesus monkey liver
pIC50: −log10 of the molar value.
readout_name: pIC50

{"columns": ["smiles_text", "value"],
 "data": [
  ["O=C(O)[C@H]1NC[C@@H]2O[C@@H]21", 3.70]
]}
